# TARGET_OR_SYSTEM: human TLR9 (Homo sapiens (Human))
# PROTOCOL_NOTES: TLR9 inhibition reporter assay (HEK-Blue SEAP)
# CONDITION_LABEL: read-out: TLR9 IC50; HEK-Blue cells overexpressing human TLR9; ODN2006 5 nM stimulation; SEAP reporter
pIC50: −log10 of the molar value.
MEASUREMENT_NAME: pIC50

Would you please look over these solved cases?
CCN(C)C1CCC(c2ncc3[nH]c(-c4cc(OC)c5ncnn5c4)c(C(C)C)c3c2F)CC1 (stereo not shown)	6.09
COc1cc(-c2[nH]c3cnc(C4CCC(NCC(C)(C)C)CC4)c(F)c3c2C(C)C)cn2ncnc12 (stereo not shown)	5.84
COCCN1CCN(c2ncc3[nH]c(-c4cn5ncnc5c(C)c4C)c(C(C)C)c3c2F)[C@H](C)C1	4.33
Cc1c(-c2[nH]c3cnc(N4CCC(NC5COC5)CC4)c(C)c3c2C(C)C)cn2ncnc2c1C	5.68
Cc1c(-c2[nH]c3cnc(C4CCC(NCC(C)(C)C)CC4)c(F)c3c2C(C)C)cn2ncnc2c1C (stereo not shown)	6.13
Cc1c(-c2[nH]c3cnc(N4CCN(CC5CC5)C[C@H]4C)c(F)c3c2C(C)C)cn2ncnc2c1C	4.86
CCCN1CCN(c2ncc3[nH]c(-c4cn5ncnc5c(C)c4C)c(C(C)C)c3c2F)[C@H](C)C1	4.84

1. COc1cc(-c2[nH]c3cnc(N4CCC(N(C)C)CC4)c(F)c3c2C(C)C)cn2ncnc12
2. COc1cc(-c2[nH]c3cnc(N4CCN(C5CCN(C(C)C)CC5)C[C@H]4C)c(F)c3c2C(C)C)cn2ncnc12
stdin: I would appreciate it if you could say which entry, 1 or 2 , has the lower pIC50 value. Could you answer with the label of the item you picked?
stdout: 1
(1: 5.32, 2: 6.10)

----------
# TARGET_OR_SYSTEM: human TLR9 (Homo sapiens (Human), UniProt Q9NR96)
# Sequence (Q9NR96 26-1032): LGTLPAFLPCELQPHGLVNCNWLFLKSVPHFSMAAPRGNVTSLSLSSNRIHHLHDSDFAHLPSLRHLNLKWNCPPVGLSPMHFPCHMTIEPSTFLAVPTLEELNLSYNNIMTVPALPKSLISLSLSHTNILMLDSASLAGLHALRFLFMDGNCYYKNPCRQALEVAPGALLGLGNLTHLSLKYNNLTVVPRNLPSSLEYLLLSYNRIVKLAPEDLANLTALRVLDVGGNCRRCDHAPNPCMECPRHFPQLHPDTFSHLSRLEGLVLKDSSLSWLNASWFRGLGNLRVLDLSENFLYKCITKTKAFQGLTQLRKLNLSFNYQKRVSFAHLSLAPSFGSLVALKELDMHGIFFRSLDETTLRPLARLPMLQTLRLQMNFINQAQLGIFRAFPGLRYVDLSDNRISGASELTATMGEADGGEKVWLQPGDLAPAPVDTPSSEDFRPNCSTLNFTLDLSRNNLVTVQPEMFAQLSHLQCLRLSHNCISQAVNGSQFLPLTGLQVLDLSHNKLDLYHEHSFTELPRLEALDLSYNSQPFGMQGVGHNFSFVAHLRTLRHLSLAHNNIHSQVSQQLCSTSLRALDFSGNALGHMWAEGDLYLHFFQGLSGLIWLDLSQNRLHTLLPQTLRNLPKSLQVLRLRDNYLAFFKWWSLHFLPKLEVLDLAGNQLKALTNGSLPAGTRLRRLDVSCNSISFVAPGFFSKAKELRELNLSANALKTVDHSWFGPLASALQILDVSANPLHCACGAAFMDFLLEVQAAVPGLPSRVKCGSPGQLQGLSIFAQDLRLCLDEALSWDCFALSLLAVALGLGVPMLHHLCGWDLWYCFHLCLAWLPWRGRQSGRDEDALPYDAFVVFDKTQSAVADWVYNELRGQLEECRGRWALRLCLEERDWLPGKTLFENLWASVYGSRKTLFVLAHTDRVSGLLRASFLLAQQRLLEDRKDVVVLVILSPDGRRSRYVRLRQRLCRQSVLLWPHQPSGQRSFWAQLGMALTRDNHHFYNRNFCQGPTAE
# PROTOCOL_NOTES: TLR9 inhibition reporter assay (HEK-Blue SEAP);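 also: SEAP driven by IFN-β minimal promoter carrying five NF-κB and AP-1 sites, 22 h at 37 °C, compounds 0.05 nM–50 µM, inhibition scaled between agonist-plus-DMSO and reference-inhibitor wells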
# CONDITION_LABEL: read-out: TLR9 IC50; HEK-Blue cells overexpressing human TLR9, ODN2006 5 nM stimulation, SEAP reporter
pIC50: −log10 of the molar value.
MEASUREMENT_NAME: pIC50

COc1cc(-c2[nH]c3cnc(N4CCC(NCC(C)(C)C)CC4)c(C)c3c2C(C)C)cn2ncnc12 [Example 169]	5.76
COc1cc(-c2[nH]c3cnc(N4CCC(NC5COC5)CC4)cc3c2C(C)C)cn2ncnc12 [Example 320]	5.52
Cc1c(-c2[nH]c3cnc(N4CCC(NC5CCOCC5)CC4)c(C)c3c2C(C)C)cn2ncnc2c1C [Example 205]	6.22

I. CCN(C)C1CCC(c2cc3c(C(C)C)c(-c4cc(OC)c5ncnn5c4)[nH]c3cn2)C1 (stereo not drawn) [Example 249]
II. COc1cc(-c2[nH]c3cnc(C4CCC(NC5CCOC5)CC4)cc3c2C(C)C)cn2ncnc12 (stereo not drawn) [Example 342]
III. Cc1c(-c2[nH]c3cnc(N4CC5(CN(C)C5)C4)c(F)c3c2C(C)C)cn2ncnc2c1C [Example 407]
IV. COc1cc(-c2[nH]c3cnc(C4CCC(NCC(C)(C)O)CC4)c(F)c3c2C(C)C)cn2ncnc12 (stereo not drawn) [Example 195]
V. Cc1c(-c2[nH]c3cnc(N4CCN(CC5CCOCC5)CC4)c(F)c3c2C(C)C)cn2ncnc2c1C [Example 411]
stdin: Provide the items ranked by increasing pIC50. Output the labels ranked as instructed.
stdout: III, V, I, IV, II
(III: 4.45, V: 4.95, I: 5.84, IV: 6.24, II: 6.65)

1. Cc1c(-c2[nH]c3cnc(N4CC5(C4)CN(C4CCN(C(C)C)CC4)C5)c(F)c3c2C(C)C)cn2ncnc2c1C [Example 406]
2. Cc1c(N2CCC(NCC(C)(C)C)CC2)ncc2[nH]c(-c3cc(C)c4ncnn4c3)c(C(C)C)c12 [Example 112]
stdin: // compare measured pIC50 between 1 and 2 ; output the lower one Please reply using the label of the selected record.
stdout: 2

Every entry's value here was drawn from patent US11912703B2.
